test: protein stability index of a GFP-peptide fusion (yeast GPS) (PSI 1-4); higher = more stable; sorted into four equal gates, so the index is relative within each strain; settings: san1∆
Class satisfied: protein stability index at least 3. Class not satisfied: protein stability index below 3.

(Q) Hello, I need to know if SAYEASMVYSNVGELIE [RRP4] has measured protein stability index not below 3. Thanks!
(A) not satisfied

(Q) Hello, I need to know if VLTRMDEDRSKKEEELG [SNF2] has measured protein stability index not below 3. Thanks!
(A) satisfied

(Q) Hello, I need to know if GTGKTMLVKAVANSTKA [RPT3] has measured protein stability index not below 3. Thanks!
(A) not satisfied

(Q) Hello, I need to know if PQGSTTNGGLFGSGTQN [YGR119C/NUP57] has measured protein stability index not below 3. Thanks!
(A) satisfied

(Q) Hello, I need to know if DSLRKLYVDSESTSSTE [MTW1] has measured protein stability index not below 3. Thanks!
(A) satisfied

(Q) Hello, I need to know if AFGFVDRTLPHFSKDDY [RPO21] has measured protein stability index not below 3. Thanks!
(A) not satisfied
